Biological target: T1, Cyk3, Q07533
T1 sequence (Q07533 1-83, looked up): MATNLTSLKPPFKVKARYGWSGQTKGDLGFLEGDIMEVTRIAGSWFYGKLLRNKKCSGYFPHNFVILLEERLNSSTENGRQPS
Assay: SPOT array
Details: median of control spots 1451
Endpoint name: SPOT intensity
Write the value as a bare number.

> print(dat)
            binder   endpoint.name  observed.result
1  KKIRLIFTYPSTVGR  SPOT intensity               10
2  VQKRKLPLPGSIASA  SPOT intensity                0
3  QLLNPNRRAPRRPLS  SPOT intensity                1
4  VDFTLPPPPPPPGLD  SPOT intensity                0
5  KNPRRQLQIPRQQPS  SPOT intensity                0
6  LKPPIGRPPKFPKSP  SPOT intensity                0

Please turn your attention to the following entry.
Bench note: what SPOT intensity did RRARRQMGIPTISQV show? 2
